target-or-test-system: T1, monoclonal antibody (mAb) 5D5
T1 construct: Murine IgG1/kappa hybridoma antibody; also called 5D5 mAb; MRA-1242
T1 sequence (VH, as listed by the source, chain 1 of 2): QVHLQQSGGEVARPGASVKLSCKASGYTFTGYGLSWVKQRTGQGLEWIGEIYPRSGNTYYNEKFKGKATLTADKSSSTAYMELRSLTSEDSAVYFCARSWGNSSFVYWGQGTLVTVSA
T1 sequence (VL, as listed by the source, chain 2 of 2): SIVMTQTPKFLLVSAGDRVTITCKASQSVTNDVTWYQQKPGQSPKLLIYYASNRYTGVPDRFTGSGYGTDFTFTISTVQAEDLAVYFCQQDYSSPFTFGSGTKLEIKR
assay: competitive ELISA, competitor against rCSP for binding to mAb 5D5; row 0.01 µg/ml
The binders listed here are annotated with their ELISA signal (name and unit not given).
// no unit, no text: just the number

[[record]]
binder = "HKKLKQPADGNPDP [peptide 10 (amino acids 91-106 of CSP)]"
readout_label = "ELISA signal (name and unit not given)"
reported_measurement = 3.34


Give its ELISA signal (name and unit not given) value. Item: NEDNEKLRK [peptide B] 3.51

Give its ELISA signal (name and unit not given) value. Item: EDNEKLRKPKHKKLK [peptide 9 (amino acids 81-95 of CSP)] 0.246

Give its ELISA signal (name and unit not given) value. Item: SLGENDDGNNEDNEK [peptide 8 (amino acids 71-85 of CSP)] 3.35

Give its ELISA signal (name and unit not given) value. Item: LRKPKHKKLKQ [peptide D] 3.45

Give its ELISA signal (name and unit not given) value. Item: NEKLRKPKHK [peptide C] 3.49

Give its ELISA signal (name and unit not given) value. Item: DGNNEDNEK [peptide A] 3.57

Give its ELISA signal (name and unit not given) value. Item: PKHKKLKQPAD [peptide E] 3.39

Data credit: patent US20160176955A1
